# target: Feline_OSMR_hlgG1_Fc (feline)
# Sequence (chain, as listed by the source limits assumed, form in doubt): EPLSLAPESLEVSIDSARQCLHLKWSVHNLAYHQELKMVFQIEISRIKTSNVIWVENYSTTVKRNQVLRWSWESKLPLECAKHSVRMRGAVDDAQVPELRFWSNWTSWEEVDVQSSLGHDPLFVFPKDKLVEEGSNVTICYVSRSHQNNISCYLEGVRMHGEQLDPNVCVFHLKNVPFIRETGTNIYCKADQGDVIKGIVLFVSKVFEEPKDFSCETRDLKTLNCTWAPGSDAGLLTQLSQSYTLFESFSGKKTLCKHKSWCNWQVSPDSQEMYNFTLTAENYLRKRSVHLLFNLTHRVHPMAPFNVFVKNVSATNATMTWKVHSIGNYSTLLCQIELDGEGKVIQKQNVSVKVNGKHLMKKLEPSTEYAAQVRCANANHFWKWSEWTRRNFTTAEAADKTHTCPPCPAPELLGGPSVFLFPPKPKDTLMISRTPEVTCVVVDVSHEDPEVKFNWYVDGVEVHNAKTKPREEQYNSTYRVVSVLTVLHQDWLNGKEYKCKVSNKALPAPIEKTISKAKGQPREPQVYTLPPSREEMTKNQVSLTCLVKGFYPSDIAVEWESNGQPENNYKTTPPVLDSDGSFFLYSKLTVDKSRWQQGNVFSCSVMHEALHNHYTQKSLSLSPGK
# experimentNotes: indirect ELISA, fOSMR coated; OD ratio to antibody expression control
Quick list: ELISA ratio per entry.
Report the value in OD ratio with no unit label.

1. Mu_19F07_VL (SEQ ID NO: 49)_F94A (antibody, V domains shown) VH: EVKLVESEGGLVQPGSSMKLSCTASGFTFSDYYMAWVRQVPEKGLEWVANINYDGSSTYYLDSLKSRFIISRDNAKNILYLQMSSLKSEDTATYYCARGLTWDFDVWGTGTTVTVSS VL: DIVMTQSHKFMSPSVGDRVSITCKASQDVDTAVAWYQQKPGQSPKLLIYLASTRHTGVPDRFTGSGSGTDFTLTISNVQSEDLADYFCQQYSRAPLTFGAGTKLELKR; 1.09

**Q:** Fill in: ELISA ratio of Mu_19F07_VL (SEQ ID NO: 49)_T53A (antibody, V domains shown) VH: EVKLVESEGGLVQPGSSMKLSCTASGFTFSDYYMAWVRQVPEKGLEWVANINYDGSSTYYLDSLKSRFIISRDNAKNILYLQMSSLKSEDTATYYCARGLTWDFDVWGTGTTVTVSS VL: DIVMTQSHKFMSPSVGDRVSITCKASQDVDTAVAWYQQKPGQSPKLLIYLASARHTGVPDRFTGSGSGTDFTLTISNVQSEDLADYFCQQYSRFPLTFGAGTKLELKR is ___
**A:** 0.821

**Q:** # get_value(readout='ELISA ratio', item= Mu_19F07_VL (SEQ ID NO: 49)_Q89A (antibody, V domains shown) VH: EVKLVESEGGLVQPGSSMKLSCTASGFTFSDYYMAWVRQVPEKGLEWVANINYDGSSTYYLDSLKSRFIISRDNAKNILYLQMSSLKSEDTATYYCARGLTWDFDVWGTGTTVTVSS VL: DIVMTQSHKFMSPSVGDRVSITCKASQDVDTAVAWYQQKPGQSPKLLIYLASTRHTGVPDRFTGSGSGTDFTLTISNVQSEDLADYFCAQYSRFPLTFGAGTKLELKR )
**A:** 0.985

Data provenance is patent US20220177594A1.
